Where do the numbers come from? From ChEMBL document CHEMBL1148463.

test: Inhibition of human Dipeptidylpeptidase II (DPP II)
test readout: IC50 (nM)
Give the value in nM but do not write nM after it.

Item `NCC[C@H](N)C(=O)N1CCCCC1` : provide IC50 130

* * *

target: Dipeptidyl peptidase 2 (Homo sapiens); assay: Inhibition of human Dipeptidylpeptidase II (DPP II)
test readout: IC50 (nM)
Give the value in nM but do not write nM after it.

N[C@@H](CCNc1ccccc1)C(=O)N1CCCCC1: 1.5

Item `NCC[C@H](N=C(N)N)C(=O)N1CCCCC1` : provide IC50 7.4

Item N[C@@H](CCNCc1ccc(Cl)cc1)C(=O)N1CCCC(O)C1 (stereo not given in full) : provide IC50 54.7
